Recorded pIC50 for the following compounds
Tested on: CEM cells HIV-1 protection, formazan growth assay
Experiment: NCI AIDS Antiviral Assay
Conditions: measured here: growth of uninfected CEM cells
pIC50: −log10 of the molar value.

Consider O=C1c2c(O)cc(O)cc2OC(c2ccc(O)c(O)c2)C1O (stereo unspecified) . Its measured pIC50 is < 3.70

Cc1ccc2nc(C(C)C)c(=O)[nH]c2c1 yielded pIC50 of < 3.70

* * *

Reported pIC50 by item:
Tested on: CEM cells HIV-1 protection, formazan growth assay
Assay: NCI AIDS Antiviral Assay
Conditions: measured here: growth of uninfected CEM cells
pIC50: −log10 of the molar value.

// field: pIC50; key: O=c1oc2ccccc2c(O)c1/C=N/C(=S)NCc1ccccc1 ; value = < 3.70

Lab note: measured pIC50 of CC(C)=NOC(=O)CNC(=O)C(Cc1ccccc1)NC(=O)C(C)NC(=O)OC(C)(C)C (stereo unspecified) was < 3.70

Looking up C=CCn1cnc2c(=O)[nH]c(Nc3ccccc3)nc21 , I see its pIC50 listed as < 3.82

Field pIC50 (entry Cc1cc(C#N)c[n+](C)c1 ) reads < 3.70

GET /value?item= O=C(Nc1nc(=S)[nH][nH]1)C(=O)C1C(=O)Nc2ccccc2S1=O (stereo unspecified) &field=pIC50 returns < 3.43

Others:
For record CC(=O)NC(CCCCN(Cc1ccccc1)C(=O)N(CCCl)N=O)C(=O)NCc1ccccc1 (stereo unspecified) the listed pIC50 is < 4.14

GET /value?item= CC(=O)c1c2c(cc3c1CC1(C3)Cc3cc4c(c(C(C)=O)c3C1)CCC4)CCC2 &field=pIC50 returns < 4.73

// recorded pIC50 for CC(=O)c1c2c(cc3c1CC1(Cc4ccccc4C1=O)C3)CCC2 (stereo unspecified) : 4.75

Recorded result, O=CC1(C(O)C2SCCCS2)SCCCS1 (stereo unspecified) , pIC50: 5.26

Value of pIC50 reported for the compound O=C(c1ccccc1)n1cc(-c2ccccc2)c2c(=O)[nH]cnc21 is < 4.00

Briefly, pIC50 measured for [Cl][Cu+].[NH-]C(Cc1c[nH]cn1)C(=O)O (stereo unspecified) : 4.57
